# Test system: CAKI-1
# Assay remarks: NCI tumour cell line growth inhibition, 48 h
Active and inactive are the calls of the source. Cut-off read from the data, not from the text of the source: active = GI50 up to about 1.1 µM and inactive = higher.
Outcome measure: GI50

For this compound ( `Cc1nc2cccc(F)c2c(=O)n1-c1nnc(C(F)(F)F)s1` ), measured GI50 is > 10 µM (inactive)

Record summary for `COc1cc(/C=C/C(=N\NC(=S)NN)c2sc(NNC(C)=O)nc2C)ccc1O` : reported GI50 = > 100 µM (inactive)

Record C#CC1NC(=O)C1N(CC)CC (centres undefined) . Reported GI50: 86.5 µM (inactive)

Kindly note the recorded GI50 for `O=C(NC(=O)c1cc2cc(Br)cc(Br)c2oc1=O)Oc1ccccc1` , which is 43 µM (inactive)
